# test-name: Cmax in dog
# Format: ADME, organism-based, Canis lupus familiaris
# condition-label: in vivo
quantity-kind: Cmax (nM)

INSERT INTO assay_data (structure_as_smiles, unit, readout_number) VALUES
  ('O=C([C@@H]1C[C@H]1c1ccc(C(F)(F)F)cc1)N1CCN(S(=O)(=O)c2cc(-c3nnc[nH]3)cc(C(F)(F)F)c2)CC1', 'nM', 210);

###

# assayed-target: Cannabinoid receptor 1 (Rattus norvegicus, UniProt P20272)
# Sequence (P20272 whole entry): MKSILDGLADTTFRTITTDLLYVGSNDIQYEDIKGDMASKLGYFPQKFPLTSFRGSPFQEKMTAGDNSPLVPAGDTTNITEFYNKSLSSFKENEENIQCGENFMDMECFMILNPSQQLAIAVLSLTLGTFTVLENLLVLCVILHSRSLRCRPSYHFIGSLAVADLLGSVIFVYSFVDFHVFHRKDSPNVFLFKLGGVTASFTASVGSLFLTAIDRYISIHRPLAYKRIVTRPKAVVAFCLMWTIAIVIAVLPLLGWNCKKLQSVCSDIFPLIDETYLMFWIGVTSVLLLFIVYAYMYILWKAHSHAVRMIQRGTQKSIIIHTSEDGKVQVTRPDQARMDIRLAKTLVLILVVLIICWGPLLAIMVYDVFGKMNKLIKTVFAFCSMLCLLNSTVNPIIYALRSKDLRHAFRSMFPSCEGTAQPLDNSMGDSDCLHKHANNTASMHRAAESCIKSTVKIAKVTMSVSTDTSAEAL
# test-name: Antagonist activity at rat recombinant CB1R expressed in CHO cells assessed as inhibition of methanandamide-stimulated cAMP level
# Assay type: functional, cell-based
Entries and their measured IC50 follow.
quantity-kind: IC50 (nM)

INSERT INTO results (structure_as_smiles, readout_number) VALUES
  ('O=C(Cc1ccc(C(F)(F)F)cc1)N1CCN(S(=O)(=O)c2cc(C3CC3)cc(C(F)(F)F)c2)CC1', 1.9),
  ('O=C(c1ccc(C(F)(F)F)cc1)N1CCN(S(=O)(=O)c2cc(C3CC3)cc(C(F)(F)F)c2)CC1', 77),
  ('O=C([C@@H]1C[C@H]1c1ccc(C(F)(F)F)cc1)N1CCN(S(=O)(=O)c2cc(C3CC3)cc(C(F)(F)F)c2)CC1', 9.2);
